- test.name: NCI Yeast Anticancer Drug Screen. Data for the cln2 rad14 strain (AID 165);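 also: 0% = growth equal to vehicle treated cultures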
- condition.parameters: S. cerevisiae cln2 rad14 strain, at 50.0 µM, active compounds read high
About 79,000 compounds went through this panel and 15% of them were active in at least one assay; those are over-represented in the sample as a whole.
Provide the recorded growth inhibition for the entries that follow.
Lab book: enter the figure in %, no units written.

Ask: Given CNC(=O)C(c1ccccc1)C(O)c1ccccc1 (configuration not stated) , state its recorded growth inhibition.
Reply: 10.4

Ask: GET /values?readout=growth inhibition&item= O=c1cc(CCl)nc2c3ncn(C4OC(CO)C(O)C4O)c3ncn12 (configuration not stated)
Reply: -5.95

Ask: I am curious: what growth inhibition value has been reported for Oc1c(Cl)cc(N=Cc2ccc(N(CCCCl)CCCCl)cc2Cl)cc1Cl ?
Reply: 75.2

Ask: Fill blank: measured growth inhibition of the compound CC(C)C1=CC23CCC4C(C)(C(=O)O)CCCC4(C)C2CC1C1C(=O)N(CCCN(C)C)C(=O)C13 (configuration not stated) is ____.
Reply: 98.2

Ask: growth inhibition for C=CCC(OCCC)c1ccc2c(c1)OCO2 (configuration not stated) ?
Reply: 5.05

Ask: Look at this compound and give its reported growth inhibition. CC(C)N(C)c1ncnc2c1cnn2C
Reply: -14.8

Ask: Look up growth inhibition for this compound: CCCCN1C(=O)CC2[C@@H]3CCc4cc(OC)ccc4C3CC[C@]2(C)C1=O (some centres not stated)
Reply: 26.6

Ask: Request the reported growth inhibition associated with CSc1ccc(NC(=O)N(Cc2ccccc2)c2ccccc2)cc1
Reply: -6.4

Ask: Entry O=C(CC1C(=O)Nc2ccccc2S1=O)Nc1cccc(Cl)c1 (configuration not stated) : reported growth inhibition = ?
Reply: 18.2

Ask: Bench note: what growth inhibition did Cc1ccc(N=Nc2c(N)ccc3ccccc23)cc1 show?
Reply: 84.2

Ask: Requested read-out: growth inhibition. Entry: CN(C)N=Nc1ccccc1
Reply: 15.4

Ask: Entry COc1ccc(OC)c(N2C(=O)C(=O)C(C(C)=O)C2=O)c1 (configuration not stated) : reported growth inhibition = ?
Reply: 25.1
